molecular target: human TLR8 (Homo sapiens); test: TLR8 inhibition reporter assay (HEK-Blue cells, SEAP reporter, R848 stimulation); details: HEK-Blue cells overexpressing human TLR8, SEAP reporter, R848 15.9 μM
Sequence (Q9NR97 27-1041): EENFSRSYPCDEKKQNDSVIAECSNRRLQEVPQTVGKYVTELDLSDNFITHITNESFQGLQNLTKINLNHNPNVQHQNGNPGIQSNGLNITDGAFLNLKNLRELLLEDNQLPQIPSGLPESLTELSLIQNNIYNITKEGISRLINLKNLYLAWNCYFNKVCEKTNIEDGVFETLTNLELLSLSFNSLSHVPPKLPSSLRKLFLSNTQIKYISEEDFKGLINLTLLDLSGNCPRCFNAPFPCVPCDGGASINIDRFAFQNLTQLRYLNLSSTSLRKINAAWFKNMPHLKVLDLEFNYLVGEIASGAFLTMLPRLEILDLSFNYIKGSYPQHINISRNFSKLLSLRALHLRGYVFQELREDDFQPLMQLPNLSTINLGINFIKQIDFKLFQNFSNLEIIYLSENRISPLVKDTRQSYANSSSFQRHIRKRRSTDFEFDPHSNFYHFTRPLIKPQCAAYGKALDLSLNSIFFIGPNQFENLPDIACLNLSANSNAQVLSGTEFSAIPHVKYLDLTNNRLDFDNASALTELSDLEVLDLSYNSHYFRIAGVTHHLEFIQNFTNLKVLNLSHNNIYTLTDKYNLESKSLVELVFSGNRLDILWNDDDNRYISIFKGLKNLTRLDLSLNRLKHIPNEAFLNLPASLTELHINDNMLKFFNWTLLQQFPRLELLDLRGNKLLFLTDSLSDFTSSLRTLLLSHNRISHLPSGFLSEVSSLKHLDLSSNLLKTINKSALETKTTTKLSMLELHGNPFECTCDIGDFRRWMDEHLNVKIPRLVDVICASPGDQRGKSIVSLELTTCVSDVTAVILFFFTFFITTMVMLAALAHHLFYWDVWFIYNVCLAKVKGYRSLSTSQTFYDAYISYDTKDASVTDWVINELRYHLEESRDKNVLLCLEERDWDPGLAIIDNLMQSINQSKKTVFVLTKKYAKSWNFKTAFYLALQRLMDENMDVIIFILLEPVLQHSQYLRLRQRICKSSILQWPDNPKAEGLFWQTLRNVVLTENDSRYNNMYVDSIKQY
pIC50: −log10 of the molar value.
Values of pIC50 greater than or equal to 9 map to Y; values below map to N.

Example cases with answers are listed next.
INSERT INTO assay_data (compound, category) VALUES
  ('Cc1cc(-c2[nH]nc(-c3ccc(C4CCN(C)CC4)nc3)c2C(C)C)cn2ncnc12', 'N'),
  ('Cc1cc(-c2[nH]nc(C(=O)N[C@H]3CC[C@@H](NCc4cncnc4)CC3)c2C(C)C)cn2ncnc12', 'N'),
  ('COc1cc(-c2[nH]nc(C(=O)N(C)C3CCN(C)CC3)c2C(C)C)cn2ncnc12', 'N'),
  ('Cc1cc(-c2[nH]nc(C3CCC(N(C)CC(=O)N(C)C)CC3)c2C(C)C)cn2ncnc12 (centres unmarked) [Example 298]', 'Y'),
  ('Cc1cc(-c2[nH]nc(C(=O)NC3CN(C)C3)c2C(C)C)cn2ncnc12', 'Y'),
  ('Cc1cc(-c2[nH]nc(C(=O)NC3CCN(C(C)C)CC3)c2C(C)C)cn2ncnc12', 'N'),
  ('COc1cc(-c2[nH]nc(-c3ccc(C4CN(CC(C)(C)O)C4)cc3)c2C(C)C)cn2ncnc12', 'N'),
  ('COc1cc(-c2[nH]nc(-c3ccc(C4CCN(C(C)C)CC4)cn3)c2C(C)C)cn2ncnc12', 'Y'),
  ('Cc1cc(-c2[nH]nc(C(=O)NCC3CN(C)CCO3)c2C(C)C)cn2ncnc12 (centres unmarked) [Example 139]', 'N'),
  ('Cc1cc(-c2[nH]nc(C(=O)NC3CCN(C(C)C(C)C)CC3)c2C(C)C)cn2ncnc12 (centres unmarked)', 'N');

Request: Is pIC50 at least 9? Consider `COc1cc(-c2[nH]nc(-c3ccc(C4CCN(CC(C)(C)O)CC4)cn3)c2C(C)C)cn2ncnc12`
Response: N

Request: Is pIC50 at least 9? Consider `COc1cc(-c2[nH]nc(-c3ccc(C4CCN(CC(=O)N(C)C)CC4)cn3)c2C(C)C)cn2ncnc12`
Response: N
